Taken from paper PMC11960622.

# target-system: topo-II enzyme
# assay-overview: In vitro topoisomerase II inhibitory activity
# experimental-parameters: read-out: Topo-II assay IC50
Provide the recorded IC50 for the entries that follow.
Number in nM, nothing else.

QUERY: Entry NC1=NN(c2ccc([N+](=O)[O-])cc2[N+](=O)[O-])C(=O)C1N=Nc1ccccc1C(=O)O (stereo not shown) : reported IC50 = ?
RESULT: 1480

QUERY: Also NC1=NN(C(=O)C=Cc2ccccc2)C(=O)C1N=Nc1ccccc1C(=O)O (stereo not shown) ?
RESULT: 1310

QUERY: Can you check COc1cccc2c1C(=O)c1c(O)c3c(c(O)c1C2=O)C[C@@](O)(C(=O)CO)C[C@@H]3O[C@H]1C[C@H](N)[C@H](O)[C@H](C)O1 [Doxorubicin, reference compound] next?
RESULT: 940

QUERY: Proceed to NC1=NC(=NS(=O)(=O)c2ccc(N)cc2)NC(=O)C1N=Nc1ccccc1C(=O)O (stereo not shown)
RESULT: 1200
